Here the recorded IC50 is given for each entry.
- Test Target: human TLR8 (Homo sapiens)
- Sequence (Q9NR97 27-1041): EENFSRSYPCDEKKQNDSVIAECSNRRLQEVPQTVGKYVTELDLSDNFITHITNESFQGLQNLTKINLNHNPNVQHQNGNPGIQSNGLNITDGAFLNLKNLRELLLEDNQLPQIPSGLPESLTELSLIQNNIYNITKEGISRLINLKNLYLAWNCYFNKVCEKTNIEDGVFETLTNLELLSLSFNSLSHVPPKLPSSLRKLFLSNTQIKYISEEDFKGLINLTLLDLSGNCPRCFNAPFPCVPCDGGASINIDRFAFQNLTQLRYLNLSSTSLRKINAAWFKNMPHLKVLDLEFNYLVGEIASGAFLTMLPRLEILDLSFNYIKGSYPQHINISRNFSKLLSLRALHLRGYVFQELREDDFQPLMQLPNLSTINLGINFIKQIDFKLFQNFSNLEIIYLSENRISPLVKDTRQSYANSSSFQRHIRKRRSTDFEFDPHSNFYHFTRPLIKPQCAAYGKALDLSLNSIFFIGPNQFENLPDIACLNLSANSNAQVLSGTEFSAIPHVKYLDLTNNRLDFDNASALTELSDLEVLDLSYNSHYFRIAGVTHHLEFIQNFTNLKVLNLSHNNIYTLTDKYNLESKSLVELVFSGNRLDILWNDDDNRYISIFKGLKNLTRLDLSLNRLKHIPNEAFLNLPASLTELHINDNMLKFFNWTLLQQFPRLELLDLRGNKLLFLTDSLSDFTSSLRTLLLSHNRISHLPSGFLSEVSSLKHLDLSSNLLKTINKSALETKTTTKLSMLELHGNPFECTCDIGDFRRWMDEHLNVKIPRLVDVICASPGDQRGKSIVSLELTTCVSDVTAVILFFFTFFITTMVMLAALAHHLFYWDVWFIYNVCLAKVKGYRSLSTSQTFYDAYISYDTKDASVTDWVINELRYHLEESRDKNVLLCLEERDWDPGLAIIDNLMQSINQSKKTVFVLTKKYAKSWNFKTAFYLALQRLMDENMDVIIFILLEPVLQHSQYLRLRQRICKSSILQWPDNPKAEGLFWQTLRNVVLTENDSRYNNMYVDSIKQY
- Method: HEK293-Blue-hTLR-8 cells assay (SEAP reporter, R848 stimulation)
- Setup Conditions: HEK293-Blue-hTLR8 cells, R848, 20 hrs; read-out: HEK/hTLR8 IC50

Use these answered entries as a reference point.
{"Compound": "C[C@@H]1CN(c2ccc(C#N)c3ncccc23)C[C@H](CN2CC3(C2)CN(c2cnc4c(n2)CCNC4)CCO3)O1", "Measured Endpoint": "IC50", "Value Reported": "< 3 nM"}
{"Compound": "C[C@@H]1CN(c2ccc(C#N)c3ncccc23)C[C@H](CN2CCN(c3ncc4c(n3)CCNC4)CC2)O1", "Measured Endpoint": "IC50", "Value Reported": "< 3 nM"}

Continue with the compound presented below.
Which IC50 value belongs to C[C@@H]1CN(c2ccc(C#N)c3ncccc23)C[C@H](CN2CCN(c3ccc4c(n3)CN[C@@H]4C)CC2)O1 (single isomer, unassigned) ?
6 nM

The reported numbers originate from patent EP3807270B1.
